tested on: Platelet-derived growth factor receptor alpha (Homo sapiens), P16234 [T674I]; conditions: at 1 µM
Sequence (P16234 whole entry T674I): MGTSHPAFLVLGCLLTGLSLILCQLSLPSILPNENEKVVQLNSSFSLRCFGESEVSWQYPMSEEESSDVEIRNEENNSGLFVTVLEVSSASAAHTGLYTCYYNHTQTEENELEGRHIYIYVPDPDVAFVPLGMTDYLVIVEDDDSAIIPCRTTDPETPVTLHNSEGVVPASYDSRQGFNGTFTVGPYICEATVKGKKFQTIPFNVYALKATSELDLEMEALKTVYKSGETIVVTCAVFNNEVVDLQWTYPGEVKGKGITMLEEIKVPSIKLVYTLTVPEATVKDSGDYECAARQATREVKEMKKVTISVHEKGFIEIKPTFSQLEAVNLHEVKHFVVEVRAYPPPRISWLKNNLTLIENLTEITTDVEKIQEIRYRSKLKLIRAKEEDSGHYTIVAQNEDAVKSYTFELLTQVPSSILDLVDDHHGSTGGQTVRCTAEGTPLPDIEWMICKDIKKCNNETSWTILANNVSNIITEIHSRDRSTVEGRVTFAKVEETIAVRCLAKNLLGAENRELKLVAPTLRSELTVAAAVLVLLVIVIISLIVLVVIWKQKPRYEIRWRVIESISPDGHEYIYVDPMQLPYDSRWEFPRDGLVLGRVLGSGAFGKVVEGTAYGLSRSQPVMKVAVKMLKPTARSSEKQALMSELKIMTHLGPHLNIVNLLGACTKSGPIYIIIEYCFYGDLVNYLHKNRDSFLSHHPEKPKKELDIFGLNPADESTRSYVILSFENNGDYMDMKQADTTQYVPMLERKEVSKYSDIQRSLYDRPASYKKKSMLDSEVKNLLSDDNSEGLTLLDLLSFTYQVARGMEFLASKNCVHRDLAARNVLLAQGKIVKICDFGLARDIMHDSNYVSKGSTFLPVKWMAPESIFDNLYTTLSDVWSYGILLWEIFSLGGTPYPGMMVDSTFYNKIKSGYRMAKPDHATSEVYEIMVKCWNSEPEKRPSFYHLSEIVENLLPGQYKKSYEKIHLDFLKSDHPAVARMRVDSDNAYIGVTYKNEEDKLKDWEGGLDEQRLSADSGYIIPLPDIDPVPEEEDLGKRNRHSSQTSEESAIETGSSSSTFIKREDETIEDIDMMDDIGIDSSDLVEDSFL
OBSERVATION_TYPE: inhibition (%)
Form entry: value (%) — number only.

Below are worked cases with known answers.
Fc1ccc(-c2nn3ccccc3c2-c2ccncc2)cc1 | 1.29
CN(C)CCOc1ccc(-c2nc(-c3ccncc3)c(-c3ccc4c(c3)CC/C4=N\O)[nH]2)cc1 | 8.38
COc1ccc(-c2cc3c(N)ncnc3o2)cc1 | 4.01
CNC(=O)c1cccc(C#Cc2cncnc2Nc2ccc(OCc3cccc(F)c3)c(Cl)c2)c1 | 2.59
CN1CCC(n2cnc(-c3ccc(F)cc3)c2-c2ccnc(Nc3ccccc3)n2)CC1 | 5.98

For the molecule `CCNC(=O)O[C@H]1CN[C@H](C#Cc2cc3ncnc(Nc4ccc(OCc5cccc(F)c5)c(Cl)c4)c3s2)C1` , what inhibition is on record?
3.06

For the molecule `CC(=O)Nc1cccc(C#Cc2cncnc2Nc2ccc(OCc3cccc(F)c3)c(Cl)c2)c1` , what inhibition is on record?
1.24

For the molecule `COc1cc(N2CCN(C(C)C)CC2)ccc1Nc1nc(Nc2ccc(F)cc2C(N)=O)c2cc[nH]c2n1` , what inhibition is on record?
5.04

For the molecule `CCn1c(-c2nonc2N)nc2c(C#CC(C)(C)O)nc(OC[C@H](N)c3ccccc3)cc21` , what inhibition is on record?
47

---

target: Cyclin-dependent kinase 4 (Homo sapiens) (UniProt P11802); conditions: at 0.1 µM
Sequence (P11802 whole entry): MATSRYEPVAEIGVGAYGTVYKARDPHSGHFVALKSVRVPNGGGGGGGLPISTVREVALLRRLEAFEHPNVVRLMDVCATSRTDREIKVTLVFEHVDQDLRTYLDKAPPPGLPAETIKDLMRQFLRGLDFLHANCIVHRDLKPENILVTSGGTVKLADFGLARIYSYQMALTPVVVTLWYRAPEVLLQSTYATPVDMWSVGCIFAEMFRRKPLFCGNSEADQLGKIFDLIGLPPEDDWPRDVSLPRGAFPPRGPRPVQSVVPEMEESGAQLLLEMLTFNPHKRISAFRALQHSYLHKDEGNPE
Description: GSK_PKIS: CDK4/cyclinD mean inhibition at 0.1 uM [Nanosyn]
Entries and their inhibition
Form entry: value (%) — number only.

CN1CCC(n2cnc(-c3ccc(F)cc3)c2-c2ccnc(Nc3ccccc3)n2)CC1 | 1.36
Nc1nc(-c2ccc(F)cc2)c(-c2ccc3ncccc3n2)s1 | 6.95
COc1cccc(-c2c[nH]c3c(N/N=C/c4ccncc4)ncnc23)c1 | 10.5

Here is another compound to look at.
Checklist item: inhibition tested on Cyclin-dependent kinase 4 (Homo sapiens) (UniProt P11802), entry `O=S(=O)(CCNCc1ccc(-c2ccc3ncnc(Nc4ccc(OCc5cccc(F)c5)c(Cl)c4)c3c2)o1)c1ccccc1` , value?
4.84

---

Biological target: Ephrin type-B receptor 2 (Homo sapiens)
Sequence (whole entry): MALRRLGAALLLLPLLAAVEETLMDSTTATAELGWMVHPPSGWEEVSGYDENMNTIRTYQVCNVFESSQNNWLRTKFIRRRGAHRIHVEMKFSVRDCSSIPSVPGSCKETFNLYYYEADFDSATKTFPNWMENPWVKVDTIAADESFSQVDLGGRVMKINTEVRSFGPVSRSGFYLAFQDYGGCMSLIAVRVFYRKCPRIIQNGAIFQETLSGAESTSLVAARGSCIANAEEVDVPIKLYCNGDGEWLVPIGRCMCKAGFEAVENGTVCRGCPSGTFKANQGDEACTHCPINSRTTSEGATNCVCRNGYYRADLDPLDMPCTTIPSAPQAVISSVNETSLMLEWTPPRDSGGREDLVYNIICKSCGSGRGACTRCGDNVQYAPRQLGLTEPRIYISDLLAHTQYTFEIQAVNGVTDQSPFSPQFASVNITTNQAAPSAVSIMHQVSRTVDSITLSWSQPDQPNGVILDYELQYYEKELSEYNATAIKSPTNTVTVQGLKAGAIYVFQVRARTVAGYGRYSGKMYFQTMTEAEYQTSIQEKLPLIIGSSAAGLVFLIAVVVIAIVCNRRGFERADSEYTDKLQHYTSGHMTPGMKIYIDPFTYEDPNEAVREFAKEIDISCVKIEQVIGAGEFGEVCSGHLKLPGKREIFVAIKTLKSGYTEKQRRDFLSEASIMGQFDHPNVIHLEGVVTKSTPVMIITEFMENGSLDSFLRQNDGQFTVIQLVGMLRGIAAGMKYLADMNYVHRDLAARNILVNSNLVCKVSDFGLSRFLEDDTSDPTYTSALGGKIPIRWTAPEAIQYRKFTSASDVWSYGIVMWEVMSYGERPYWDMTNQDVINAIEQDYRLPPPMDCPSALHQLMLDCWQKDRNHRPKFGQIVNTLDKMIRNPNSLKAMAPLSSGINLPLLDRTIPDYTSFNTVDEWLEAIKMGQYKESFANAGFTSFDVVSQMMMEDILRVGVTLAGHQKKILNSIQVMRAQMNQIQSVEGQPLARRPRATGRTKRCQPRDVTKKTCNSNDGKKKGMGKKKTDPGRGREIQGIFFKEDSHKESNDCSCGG
Conditions: at 0.1 µM
Entries and their inhibition
Form entry: value (%) — number only.

c1cc(-c2cnn3nc(N4CCOCC4)ccc23)nc(NC2CC2)n1 | 10.2
CC(=O)NCc1cccc(C#Cc2cncnc2Nc2ccc(OCc3cccc(F)c3)c(Cl)c2)c1 | 0.63
COc1cc(N2CCN(C(C)C)CC2)ccc1Nc1nc(Nc2ccc(F)cc2C(N)=O)c2cc[nH]c2n1 | 4.59
CCCN(CCS(C)(=O)=O)Cc1ccc(-c2ccc3ncnc(Nc4ccc(OCc5cccc(F)c5)c(Cl)c4)c3c2)o1 | 4.71
COc1ccc2c(-c3ccnc(Nc4cccc(OC(F)(F)F)c4)n3)cnn2n1 | 5.72
CNC(=O)c1cc(-c2ccc(F)cc2)cc(-c2ccc(S(=O)(=O)N3CCCC3)cc2)c1N | 2.73
O=C(O[C@H]1CN[C@H](C#Cc2cc3ncnc(Nc4ccc(Cc5ccccc5)cc4)c3s2)C1)N1CCOCC1 | 7.69
O=C(Nc1n[nH]c2cc(-c3ccc(F)cc3)ccc12)C1CC1 | 6.99

Checklist item: inhibition tested on Ephrin type-B receptor 2 (Homo sapiens), entry `CCc1nn2ncccc2c1-c1ccnc(NC2CC2)n1` , value?
-1.23

Checklist item: inhibition tested on Ephrin type-B receptor 2 (Homo sapiens), entry `Fc1ccc(-c2nn3ccccc3c2-c2ccncc2)cc1` , value?
5.2

Checklist item: inhibition tested on Ephrin type-B receptor 2 (Homo sapiens), entry `CNC(=O)c1cccc(C#Cc2cncnc2Nc2ccc(OCc3cccc(F)c3)c(Cl)c2)c1` , value?
3.54

Checklist item: inhibition tested on Ephrin type-B receptor 2 (Homo sapiens), entry `CCCN1CCC(c2ccc(Nc3nc(Nc4cc(F)ccc4C(N)=O)c4cc[nH]c4n3)c(OC)c2)CC1` , value?
6.06

Checklist item: inhibition tested on Ephrin type-B receptor 2 (Homo sapiens), entry `CCNC(=O)O[C@H]1CN[C@H](C#Cc2cc3ncnc(Nc4ccc(OCc5cccc(F)c5)c(Cl)c4)c3s2)C1` , value?
8.39

Checklist item: inhibition tested on Ephrin type-B receptor 2 (Homo sapiens), entry `CCn1cc(-c2ccnc3[nH]ccc23)c(-c2cccc(NC(=O)Nc3ccc(OCc4ccccc4)cc3)c2)n1` , value?
-2.33

Checklist item: inhibition tested on Ephrin type-B receptor 2 (Homo sapiens), entry `Cc1ccc(O)cc1Nc1ccnc2cc(-c3ccccn3)ccc12` , value?
90.5

Checklist item: inhibition tested on Ephrin type-B receptor 2 (Homo sapiens), entry `COc1cc(/C=N/Nc2ncnc3[nH]ncc23)ccc1O` , value?
11.7

Checklist item: inhibition tested on Ephrin type-B receptor 2 (Homo sapiens), entry `COc1cc2ncn(-c3cc(OCc4ccccc4C(F)(F)F)c(C(=O)N(C)C)s3)c2cc1OC` , value?
0.66

Checklist item: inhibition tested on Ephrin type-B receptor 2 (Homo sapiens), entry `c1ccc(-c2nc3n(c2-c2ccc4c(c2)OCO4)CCC3)nc1` , value?;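 also: reported as mean inhibition of EPHB2, from the GSK PKIS dataset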
1.03

---

target: Serine/threonine-protein kinase BRSK2 (Homo sapiens) (UniProt Q8IWQ3); details: at 0.1 µM;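 also: values are mean inhibition of BRSK2 from the GSK PKIS screening dataset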
Sequence (Q8IWQ3 whole entry): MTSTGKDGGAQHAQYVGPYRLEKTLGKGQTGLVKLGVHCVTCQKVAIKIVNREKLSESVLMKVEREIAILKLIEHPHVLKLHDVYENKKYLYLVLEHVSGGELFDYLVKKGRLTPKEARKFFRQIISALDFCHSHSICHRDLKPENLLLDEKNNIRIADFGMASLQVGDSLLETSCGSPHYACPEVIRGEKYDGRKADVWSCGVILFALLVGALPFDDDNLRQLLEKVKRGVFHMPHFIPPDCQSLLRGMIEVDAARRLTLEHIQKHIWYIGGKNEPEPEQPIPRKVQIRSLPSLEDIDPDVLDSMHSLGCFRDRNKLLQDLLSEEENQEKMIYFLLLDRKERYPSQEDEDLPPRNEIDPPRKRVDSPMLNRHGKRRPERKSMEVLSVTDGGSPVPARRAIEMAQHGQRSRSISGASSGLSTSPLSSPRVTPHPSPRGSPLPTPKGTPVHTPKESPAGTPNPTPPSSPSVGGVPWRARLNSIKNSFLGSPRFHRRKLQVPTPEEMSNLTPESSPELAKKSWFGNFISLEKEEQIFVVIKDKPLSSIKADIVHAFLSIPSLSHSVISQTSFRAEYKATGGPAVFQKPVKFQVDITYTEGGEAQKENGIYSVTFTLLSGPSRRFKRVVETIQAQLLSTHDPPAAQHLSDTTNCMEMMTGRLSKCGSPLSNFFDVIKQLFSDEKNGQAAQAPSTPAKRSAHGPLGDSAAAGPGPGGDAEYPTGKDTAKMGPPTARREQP
Entries and their inhibition
Form entry: value (%) — number only.

Fc1ccc(-c2nn3ncccc3c2-c2ccnc(Nc3ccc4c(c3)OCCO4)n2)cc1 | 0.21
Clc1ccc(-c2nn3ncccc3c2-c2ccnc(Nc3ccccc3)n2)cc1 | -0.16
CS(=O)(=O)CCNCc1coc(-c2ccc3ncnc(Nc4ccc(OCc5ccccc5)cc4)c3c2)c1 | 1.32
Nc1ncc(-c2cccc(S(N)(=O)=O)c2)c2scc(-c3ccc(F)c(Cl)c3)c12 | 3.28

For the compound `CS(=O)(=O)CCNCc1ccc(-c2ccc3ncnc(Nc4ccc(OCc5ccccc5)c(C(F)(F)F)c4)c3c2)o1` , what inhibition is on record?
3.18

---

molecular target: Death-associated protein kinase 1 (Homo sapiens) (UniProt P53355); settings: at 0.1 µM;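 also: reported figure is the mean inhibition of DAPK1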
Sequence (P53355 whole entry, looked up): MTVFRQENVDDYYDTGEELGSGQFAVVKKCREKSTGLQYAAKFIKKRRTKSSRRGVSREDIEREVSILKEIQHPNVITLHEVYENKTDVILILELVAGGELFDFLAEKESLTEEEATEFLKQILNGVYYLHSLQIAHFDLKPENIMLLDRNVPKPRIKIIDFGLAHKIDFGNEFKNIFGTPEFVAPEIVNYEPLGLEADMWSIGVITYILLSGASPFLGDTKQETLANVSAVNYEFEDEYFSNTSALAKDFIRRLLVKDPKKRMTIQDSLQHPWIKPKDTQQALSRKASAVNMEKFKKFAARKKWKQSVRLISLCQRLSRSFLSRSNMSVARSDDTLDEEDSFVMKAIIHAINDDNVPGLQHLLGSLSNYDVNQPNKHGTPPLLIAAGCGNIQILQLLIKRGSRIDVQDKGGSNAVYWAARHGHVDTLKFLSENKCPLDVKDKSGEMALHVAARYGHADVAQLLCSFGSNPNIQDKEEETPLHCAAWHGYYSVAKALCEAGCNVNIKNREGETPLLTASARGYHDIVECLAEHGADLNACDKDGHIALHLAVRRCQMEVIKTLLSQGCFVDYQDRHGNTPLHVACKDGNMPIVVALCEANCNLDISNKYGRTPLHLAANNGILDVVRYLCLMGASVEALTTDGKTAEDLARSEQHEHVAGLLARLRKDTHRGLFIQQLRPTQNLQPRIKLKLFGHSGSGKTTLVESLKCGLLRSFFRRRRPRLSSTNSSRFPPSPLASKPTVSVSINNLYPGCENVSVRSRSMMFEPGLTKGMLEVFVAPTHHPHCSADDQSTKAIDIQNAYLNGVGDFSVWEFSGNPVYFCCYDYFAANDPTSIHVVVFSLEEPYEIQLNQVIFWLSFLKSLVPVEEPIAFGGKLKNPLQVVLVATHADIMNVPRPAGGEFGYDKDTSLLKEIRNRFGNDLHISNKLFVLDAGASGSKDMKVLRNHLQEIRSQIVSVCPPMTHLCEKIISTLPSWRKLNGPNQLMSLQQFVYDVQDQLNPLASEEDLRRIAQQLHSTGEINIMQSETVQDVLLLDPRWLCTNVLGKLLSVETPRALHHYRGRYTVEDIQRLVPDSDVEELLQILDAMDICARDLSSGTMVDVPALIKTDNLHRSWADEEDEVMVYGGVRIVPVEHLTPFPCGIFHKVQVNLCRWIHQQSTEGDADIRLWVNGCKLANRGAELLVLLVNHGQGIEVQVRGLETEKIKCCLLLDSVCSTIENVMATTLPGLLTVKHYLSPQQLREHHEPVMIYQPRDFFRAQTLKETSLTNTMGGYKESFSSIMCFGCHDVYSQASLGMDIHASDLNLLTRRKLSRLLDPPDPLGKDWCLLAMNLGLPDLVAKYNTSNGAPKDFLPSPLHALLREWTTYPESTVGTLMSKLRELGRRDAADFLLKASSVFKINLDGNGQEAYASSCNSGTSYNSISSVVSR
OBSERVATION_TYPE: inhibition (%)
Form entry: value (%) — number only.

Below are worked cases with known answers.
COc1cccc(-n2ncc3c(N/N=C/c4ccc(F)cc4)ncnc32)c1 | 4.6
NC(=O)c1sc(-n2cnc3ccc(C(F)(F)F)cc32)cc1OCc1ccccc1Br | -0.43
COc1ccc2c(-c3ccnc(Nc4cccc(OC(F)(F)F)c4)n3)cnn2n1 | 5.2
Nc1nc(-c2ccc(F)cc2)c(-c2ccc3ncccc3n2)s1 | 4.26
NS(=O)(=O)c1ccc(N/N=C2\C(=O)Nc3ccc4ncccc4c32)cc1 | 10.9
NS(=O)(=O)c1ccc(Nc2ncc(-c3ccccc3)o2)cc1 | 3.79

For the molecule `CNC(=O)c1cc(-c2ccc(F)cc2)cc(-c2ccc(S(=O)(=O)N3CCCC3)cc2)c1N` , what inhibition is on record?
10.6

For the molecule `COc1cccc(-c2c[nH]c3c(N/N=C/c4ccncc4)ncnc23)c1` , what inhibition is on record?
9.18

For the molecule `O=C(O[C@H]1CN[C@H](C#Cc2cc3ncnc(Nc4ccc(Cc5ccccc5)cc4)c3s2)C1)N1CCOCC1` , what inhibition is on record?
4.84

For the molecule `Cc1cccc(Nc2ncc(-c3ccccc3)o2)c1` , what inhibition is on record?
5.26
